target.entity: Calcium-dependent protein kinase 4 (Plasmodium falciparum (isolate 3D7))
Sequence (Q8IBS5 whole entry): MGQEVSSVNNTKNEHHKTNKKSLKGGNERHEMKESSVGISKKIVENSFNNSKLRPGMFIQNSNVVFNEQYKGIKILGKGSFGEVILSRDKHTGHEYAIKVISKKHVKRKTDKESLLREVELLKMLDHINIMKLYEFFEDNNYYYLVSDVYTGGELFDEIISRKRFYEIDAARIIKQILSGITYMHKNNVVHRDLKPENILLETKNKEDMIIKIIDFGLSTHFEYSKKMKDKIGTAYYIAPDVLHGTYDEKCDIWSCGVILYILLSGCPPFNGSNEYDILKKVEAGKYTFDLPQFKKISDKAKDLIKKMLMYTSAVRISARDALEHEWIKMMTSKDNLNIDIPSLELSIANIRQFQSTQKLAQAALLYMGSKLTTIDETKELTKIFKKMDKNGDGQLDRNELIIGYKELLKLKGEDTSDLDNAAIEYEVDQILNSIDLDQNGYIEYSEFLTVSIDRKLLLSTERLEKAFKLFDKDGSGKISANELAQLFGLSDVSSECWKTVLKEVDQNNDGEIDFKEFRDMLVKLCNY
protocol.summary: Inhibition of Plasmodium falciparum His-tagged CDPK4 expressed in Escherichia coli BL21(DE3) using […] as substrate after 10 mins in presence of ATP
quantity: pKi
Answers are plain numbers, as −log10 of the molar value.

Ask: Query: pKi; subject: CN1CCN(CCCN2c3ccccc3Sc3ccc(C(F)(F)F)cc32)CC1
Reply: 3.82

====

Test system: Plasmodium falciparum
protocol.summary: Antiplasmodial activity against Plasmodium falciparum NF54 gametocyte form infected in human erythrocytes by scintillation counting-based [3H]-hypoxanthine incorporation assay
Assay type: functional, organism-based
quantity: IC50 (nM)
Give bare numbers, in nM.

Ask: Query (molecule): CN1CCC(c2cc(-c3ccncc3)c(-c3ccc(F)cc3)[nH]2)CC1 ; field requested: IC50
Reply: 490
